Biological target: α4β1 integrin (Homo sapiens, UniProt P05556+P13612)
Construct: a T-cell line, Jurkat, known to express the α4β1 integrin
Sequence (P13612 34-1032): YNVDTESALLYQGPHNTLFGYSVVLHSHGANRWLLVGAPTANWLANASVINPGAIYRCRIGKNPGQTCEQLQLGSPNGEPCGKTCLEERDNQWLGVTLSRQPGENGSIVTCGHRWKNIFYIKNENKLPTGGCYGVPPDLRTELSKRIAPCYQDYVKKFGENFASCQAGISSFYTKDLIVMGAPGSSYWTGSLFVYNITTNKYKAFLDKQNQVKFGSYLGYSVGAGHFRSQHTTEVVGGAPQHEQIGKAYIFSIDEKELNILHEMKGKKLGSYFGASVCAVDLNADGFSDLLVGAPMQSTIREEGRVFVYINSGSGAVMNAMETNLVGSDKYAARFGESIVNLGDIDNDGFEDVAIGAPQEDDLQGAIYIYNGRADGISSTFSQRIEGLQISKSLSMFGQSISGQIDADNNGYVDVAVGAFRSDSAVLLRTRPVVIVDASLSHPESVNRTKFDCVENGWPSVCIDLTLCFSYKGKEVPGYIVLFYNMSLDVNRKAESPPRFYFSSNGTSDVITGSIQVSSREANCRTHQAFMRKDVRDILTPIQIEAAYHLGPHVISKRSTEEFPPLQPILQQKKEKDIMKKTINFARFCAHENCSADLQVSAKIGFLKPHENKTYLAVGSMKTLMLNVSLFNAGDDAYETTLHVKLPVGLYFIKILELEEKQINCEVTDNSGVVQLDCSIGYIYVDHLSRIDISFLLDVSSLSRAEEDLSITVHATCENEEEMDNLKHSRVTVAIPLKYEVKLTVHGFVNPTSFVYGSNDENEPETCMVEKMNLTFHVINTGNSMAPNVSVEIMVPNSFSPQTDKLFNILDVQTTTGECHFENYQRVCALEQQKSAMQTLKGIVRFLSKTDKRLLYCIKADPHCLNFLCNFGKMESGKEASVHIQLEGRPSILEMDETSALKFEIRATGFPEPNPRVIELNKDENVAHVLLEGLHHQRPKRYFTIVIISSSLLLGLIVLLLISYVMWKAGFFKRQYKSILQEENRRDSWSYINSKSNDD
Sequence (P05556 21-798): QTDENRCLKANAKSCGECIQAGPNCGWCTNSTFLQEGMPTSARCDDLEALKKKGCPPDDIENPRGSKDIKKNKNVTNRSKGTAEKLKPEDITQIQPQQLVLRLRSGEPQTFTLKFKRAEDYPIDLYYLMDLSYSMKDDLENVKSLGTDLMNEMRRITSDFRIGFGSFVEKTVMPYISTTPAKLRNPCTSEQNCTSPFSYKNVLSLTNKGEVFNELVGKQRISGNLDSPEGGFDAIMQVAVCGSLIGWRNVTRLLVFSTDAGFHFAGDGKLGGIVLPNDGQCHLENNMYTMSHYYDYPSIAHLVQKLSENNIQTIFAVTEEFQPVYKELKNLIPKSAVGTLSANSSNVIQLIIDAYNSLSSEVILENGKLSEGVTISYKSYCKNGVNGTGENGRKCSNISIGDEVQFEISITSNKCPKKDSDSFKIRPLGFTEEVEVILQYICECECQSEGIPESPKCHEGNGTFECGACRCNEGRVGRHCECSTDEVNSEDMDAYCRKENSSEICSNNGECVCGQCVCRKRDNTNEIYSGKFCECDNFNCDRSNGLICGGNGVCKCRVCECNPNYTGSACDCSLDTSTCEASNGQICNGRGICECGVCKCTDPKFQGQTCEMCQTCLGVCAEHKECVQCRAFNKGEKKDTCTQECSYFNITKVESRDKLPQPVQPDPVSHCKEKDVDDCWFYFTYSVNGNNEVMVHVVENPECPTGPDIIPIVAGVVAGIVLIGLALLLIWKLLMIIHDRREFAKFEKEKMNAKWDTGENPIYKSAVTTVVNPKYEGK
Experiment: Jurkat-Endothelial Cell Adhesion Assay (Jurkat EC)
Conditions: Jurkat cell adhesion to IL-1 stimulated endothelial cell monolayers
Experimental readout: IC50

Lab book: IC50 of `CC1(C)[C@@H](C(=O)O)C[C@@H]1C(=O)N[C@@H](Cc1ccc(OCc2c(Cl)cccc2Cl)cc1)C(=O)O` noted as ≤ 0.8 µM

For this compound ( `COCCC(=O)NC1(C(=O)N[C@@H](Cc2ccc(NC(=O)c3c(Cl)cccc3Cl)cc2)C(=O)O)CCCCC1` ), measured IC50 is 0.8 to 5 µM

Note to self: IC50 recorded for `CC(=O)[C@@H]1C[C@H](C(=O)N[C@@H](Cc2ccc(NC(=O)c3cccnc3Cl)cc2)C(=O)O)C1(C)C` was 0.8 to 5 µM

Data point: `CC(=O)[C@@H]1C[C@H](CC(=O)N[C@@H](Cc2ccc(NC(=O)c3c(Cl)cccc3Cl)cc2)C(=O)O)C1(C)C` ; IC50 = 0.8 to 5 µM

Lab note: `O=C(O)/C=C/c1ccc(C(=O)N[C@@H](Cc2ccc(NC(=O)c3c(Cl)cccc3Cl)cc2)C(=O)O)cc1` gave IC50 of 0.8 to 5 µM

Noted for O=C(NC1(C(=O)N[C@@H](Cc2ccc(NC(=O)c3c(Cl)cccc3Cl)cc2)C(=O)O)CC2CCC1C2)c1cccnc1 (stereo partly shown) : its IC50 reads 0.8 to 5 µM

Looking up `CC1(C)[C@@H](C(=O)O)C[C@H]1C(=O)N[C@@H](Cc1ccc(NC(=O)c2c(Cl)cccc2Cl)cc1)C(=O)O` , I found its IC50 recorded as ≤ 0.8 µM
